Assign relative viability to each entry below.
# Tested on: NCI-H2347
# experiment-summary: relative viability (nuclei count vs DMSO), 5 days (fraction); higher = more cells survive
# assay-conditions: first compound 0.08 µM
I only need the number, thanks.

// query Recorded relative viability of C=C1C(=O)O[C@@H](CCCCCCCC)[C@@H]1C(=O)O [C-75] + O=C(c1cc(Cc2n[nH]c(=O)c3ccccc23)ccc1F)N1CCN(C(=O)C2CC2)CC1 [Olaparib] (partner 8 µM) , please.
// result 0.552

// query Recorded relative viability of Oc1nc(-c2ccc(C(F)(F)F)cc2)nc2c1CSCC2 [XAV939] + Nc1ncn([C@H]2C[C@H](O)[C@@H](CO)O2)c(=O)n1 [Decitabine] (partner 2 µM) , please.
// result 0.62

// query Recorded relative viability of Oc1nc(-c2ccc(C(F)(F)F)cc2)nc2c1CSCC2 [XAV939] + O=C(c1cc(Cc2n[nH]c(=O)c3ccccc23)ccc1F)N1CCN(C(=O)C2CC2)CC1 [Olaparib] (partner 8 µM) , please.
// result 0.667

###

Assign relative viability to each entry below.
# Test system: EKVX
# experiment-summary: relative viability (nuclei count vs DMSO), 5 days (fraction); higher = more cells survive
# assay-conditions: first compound 0.8 µM
I only need the number, thanks.

// query Recorded relative viability of C=C1C(=O)O[C@@H](CCCCCCCC)[C@@H]1C(=O)O [C-75] + Cc1cc(Nc2cc(N3CCN(C)CC3)nc(Sc3ccc(NC(=O)C4CC4)cc3)n2)n[nH]1 [Tozasertib] (partner 0.1 µM) , please.
// result 0.406

// query Recorded relative viability of Oc1nc(-c2ccc(C(F)(F)F)cc2)nc2c1CSCC2 [XAV939] + CC(=O)c1c(C)c2cnc(Nc3ccc(N4CCNCC4)cn3)nc2n(C2CCCC2)c1=O [Palbociclib] (partner 0.5 µM) , please.
// result 0.34

// query Recorded relative viability of Oc1nc(-c2ccc(C(F)(F)F)cc2)nc2c1CSCC2 [XAV939] + C[C@]1(O)C[C@@H](c2nc(-c3ccc4ccc(-c5ccccc5)nc4c3)c3c(N)nccn32)C1 [Linsitinib] (partner 1 µM) , please.
// result 0.831

// query Recorded relative viability of Oc1nc(-c2ccc(C(F)(F)F)cc2)nc2c1CSCC2 [XAV939] + Cc1cc(Nc2cc(N3CCN(C)CC3)nc(Sc3ccc(NC(=O)C4CC4)cc3)n2)n[nH]1 [Tozasertib] (partner 0.1 µM) , please.
// result 0.372

// query Recorded relative viability of C=C1C(=O)O[C@@H](CCCCCCCC)[C@@H]1C(=O)O [C-75] + COc1cccc2cc(-c3nc([C@H]4CC[C@H](C(=O)O)CC4)n4ncnc(N)c34)[nH]c12 [OSI-027] (partner 0.5 µM) , please.
// result 0.651

// query Recorded relative viability of Oc1nc(-c2ccc(C(F)(F)F)cc2)nc2c1CSCC2 [XAV939] + CC(=O)Nc1cccc(-n2c(=O)n(C3CC3)c(=O)c3c(Nc4ccc(I)cc4F)n(C)c(=O)c(C)c32)c1 [Trametinib] (partner 0.02 µM) , please.
// result 0.311

###

# Tested on: NCI-H522
# experiment-summary: relative viability (nuclei count vs DMSO), 5 days (fraction); higher = more cells survive
# assay-conditions: first compound 0.04 µM
observed-property: relative viability
I only need the number, thanks.

// query Tell me reported relative viability for O=C(O)c1ccc(-c2c[nH]c3ncc(-c4ccccc4)cc23)cc1C1CCCC1 + Cc1cc(Nc2cc(N3CCN(C)CC3)nc(Sc3ccc(NC(=O)C4CC4)cc3)n2)n[nH]1 [Tozasertib] (partner 0.1 µM) , tested with NCI-H522.
// result 0.537

// query Tell me reported relative viability for O=C(O)c1ccc(-c2c[nH]c3ncc(-c4ccccc4)cc23)cc1C1CCCC1 + N=C(N)NC(=N)NCCc1ccccc1 [Phenformin] (partner 250 µM) , tested with NCI-H522.
// result 0.686

// query Tell me reported relative viability for O=C(O)c1ccc(-c2c[nH]c3ncc(-c4ccccc4)cc23)cc1C1CCCC1 + Nc1ncn([C@H]2C[C@H](O)[C@@H](CO)O2)c(=O)n1 [Decitabine] (partner 2 µM) , tested with NCI-H522.
// result 0.662

###

# Test system: EPLC-272H
# experiment-summary: relative viability (nuclei count vs DMSO), 5 days (fraction); higher = more cells survive
# assay-conditions: first compound 0.03162 µM
Simple rule here: relative viability less than 0.7 is TRUE, otherwise FALSE.

// query I'd appreciate it if you could check whether NC(=O)Nc1cc(-c2cccc(F)c2)sc1C(=O)N[C@H]1CCCNC1 [AZD7762] + CC(=O)c1c(C)c2cnc(Nc3ccc(N4CCNCC4)cn3)nc2n(C2CCCC2)c1=O [Palbociclib] (partner 0.5 µM) has relative viability smaller than 0.7.
// result TRUE

// query I'd appreciate it if you could check whether NC(=O)Nc1cc(-c2cccc(F)c2)sc1C(=O)N[C@H]1CCCNC1 [AZD7762] + Cc1nc(NC(=O)N2CCC[C@H]2C(N)=O)sc1-c1ccnc(C(C)(C)C(F)(F)F)c1 [Alpelisib] (partner 2 µM) has relative viability smaller than 0.7.
// result FALSE

// query I'd appreciate it if you could check whether NC(=O)Nc1cc(-c2cccc(F)c2)sc1C(=O)N[C@H]1CCCNC1 [AZD7762] + C[C@]1(O)C[C@@H](c2nc(-c3ccc4ccc(-c5ccccc5)nc4c3)c3c(N)nccn32)C1 [Linsitinib] (partner 1 µM) has relative viability smaller than 0.7.
// result FALSE

// query I'd appreciate it if you could check whether NC(=O)Nc1cc(-c2cccc(F)c2)sc1C(=O)N[C@H]1CCCNC1 [AZD7762] + CCNC(=O)c1noc(-c2cc(C(C)C)c(O)cc2O)c1-c1ccc(CN2CCOCC2)cc1 [Luminespib] (partner 0.01 µM) has relative viability smaller than 0.7.
// result TRUE

###

# System: IA-LM
# experiment-summary: relative viability (nuclei count vs DMSO), 5 days (fraction); higher = more cells survive
# assay-conditions: first compound 0.3162 µM
Assign relative viability to each entry below.
I only need the number, thanks.

// query Recorded relative viability of NC(=O)Nc1cc(-c2cccc(F)c2)sc1C(=O)N[C@H]1CCCNC1 [AZD7762] + O=C(c1cc(Cc2n[nH]c(=O)c3ccccc23)ccc1F)N1CCN(C(=O)C2CC2)CC1 [Olaparib] (partner 8 µM) , please.
// result 0.655

// query Recorded relative viability of NC(=O)Nc1cc(-c2cccc(F)c2)sc1C(=O)N[C@H]1CCCNC1 [AZD7762] + CC(C)C[C@H](NC(=O)[C@H](Cc1ccccc1)NC(=O)c1cnccn1)B(O)O [Bortezomib] (partner 0.002 µM) , please.
// result 1.14

// query Recorded relative viability of NC(=O)Nc1cc(-c2cccc(F)c2)sc1C(=O)N[C@H]1CCCNC1 [AZD7762] + CS(=O)(=O)CCNCc1ccc(-c2ccc3ncnc(Nc4ccc(OCc5cccc(F)c5)c(Cl)c4)c3c2)o1 [Lapatinib] (partner 2 µM) , please.
// result 0.798

// query Recorded relative viability of NC(=O)Nc1cc(-c2cccc(F)c2)sc1C(=O)N[C@H]1CCCNC1 [AZD7762] + CC1(C)CCC(c2ccc(Cl)cc2)=C(CN2CCN(c3ccc(C(=O)NS(=O)(=O)c4ccc(N[C@H](CCN5CCOCC5)CSc5ccccc5)c(S(=O)(=O)C(F)(F)F)c4)cc3)CC2)C1 [Navitoclax] (partner 0.5 µM) , please.
// result 0.985

###

# Test system: NCI-H2085
# experiment-summary: relative viability (nuclei count vs DMSO), 5 days (fraction); higher = more cells survive
# assay-conditions: first compound 0.253 µM
Assign relative viability to each entry below.
I only need the number, thanks.

// query Recorded relative viability of Oc1nc(-c2ccc(C(F)(F)F)cc2)nc2c1CSCC2 [XAV939] + CC(=O)c1c(C)c2cnc(Nc3ccc(N4CCNCC4)cn3)nc2n(C2CCCC2)c1=O [Palbociclib] (partner 0.5 µM) , please.
// result 0.435

// query Recorded relative viability of C=C1C(=O)O[C@@H](CCCCCCCC)[C@@H]1C(=O)O [C-75] + Nc1nc2[nH]cc(CCc3ccc(C(=O)N[C@@H](CCC(=O)O)C(=O)O)cc3)c2c(=O)[nH]1 [Pemetrexed] (partner 0.2 µM) , please.
// result 0.738

// query Recorded relative viability of Oc1nc(-c2ccc(C(F)(F)F)cc2)nc2c1CSCC2 [XAV939] + COc1cccc2cc(-c3nc([C@H]4CC[C@H](C(=O)O)CC4)n4ncnc(N)c34)[nH]c12 [OSI-027] (partner 0.5 µM) , please.
// result 0.686

// query Recorded relative viability of C=C1C(=O)O[C@@H](CCCCCCCC)[C@@H]1C(=O)O [C-75] + CC1(C)CCC(c2ccc(Cl)cc2)=C(CN2CCN(c3ccc(C(=O)NS(=O)(=O)c4ccc(N[C@H](CCN5CCOCC5)CSc5ccccc5)c(S(=O)(=O)C(F)(F)F)c4)cc3)CC2)C1 [Navitoclax] (partner 0.5 µM) , please.
// result 1.2
